Quick reference for soluble fraction (log2) among some sequences
Test: soluble fraction after stress (log2 fold change); higher = more stays soluble; pooled small domains, quantitative proteomics;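 further: 20 min heating vs room temperature control held 20 min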
Conditions: stress: 75 degC

| inputSequence | soluble fraction (log2) |
| --- | --- |
| HMHSPTFYVHVVGQVKVPGVYELEVGSRLFDAVIAAGGFKDDADQASVNLARPLSDGEQIVVLKLGDQ | -0.777 |
| HMTEKIEWYKEVLELEPNSKVFFPLARMLAEEQRFDEAVAVLEHGLERHGEFLEARLFFIELLHET | -3.16 |
| HMSTSIADNSSITYKVRKGDSLASIAKRHGVNINDVMRWNSVITKASQIQPGDMLTLYVRDS | 0.148 |
| HMDESLIEEAKAMILQMKIEGSVRVRSNGLLEFRNPLFGSVYGRSVEELQEKLNKKVREQKSRI | -0.443 |
| HMALSGTVQNFAGGIMILIFRPFKTGDYIEALGYFGKVSEVNIVSTKLRTFDNKTIILPNGALSNGNIQNY | -0.772 |
| HMNTAIDGLIEKVGMFAMEKKAISVDQVKENFSINGEQAESVIKQLETIGVLGKKNEDGTHTVM | 0.159 |
| HMTPDGNATVWSANGYGVRLRTGPGKGYAIIGVYSVGTTVKVLERGPAGGWDHIQVGSRVGYMMNEFLHYY | -3.16 |
| HMASLIGEEKALQIALEHAGVALENVAYSQVKLENDDGRWEYDTEFYSGSKEYDYEIDASTGEILGYDHD | 0.0872 |

###

Assay: soluble fraction after stress (log2 fold change); higher = more stays soluble; pooled small domains, quantitative proteomics
Settings: stress: 75 degC
metric: soluble fraction (log2)

| inputSequence | observedValue |
| --- | --- |
| HMDVLSQYGSRGEEVGKIQTRLKSWGYFSGEVTGYYGSQTTEAVKRFQQKHGLSATGVADRKTLELIGIS | -0.307 |
| HMYQFFVDPGQIQGKRVTITGSDVNHIKNVLRMRIGEEIAVSNGKDGLEYRFGIDEILEDEVIGTLRFVKE | -1.61 |
| HMKPDDDMLLKILTKLFIQKQFVINSKDIFQYILKNTNRTYENIINIVNRLDTLSIEKKRQLTIPLIKEI | -0.585 |
| HMEMTEDEITKQFDAMEREAKKEIDTGADKRAFMYGVSRTAAGMAGKNPKYARFITDKAKEVIENIAKYK | 0.298 |
| HMSDILALMPGTIKQILVAPGDSVKRGQTVIIMESMKMELTIAAHRDGVVKRIPVEQGGQVEKGMRLLELE | -1.86 |
| HMDLANRSLDRGITILESLARNGASSLADLHRDSGIAKSTIRRLLGTLIQHRLVRRSVADGLYRVTIPLPA | -1.42 |
| HMTTHERHEIIELLRQVGDPMRPKEISEALGKPSGAIRFLLSKLTEEGAIKKTGYGQYTYIP | -0.784 |
| HMNLLDYDFFEKMSSKEQEEIVEKVYIDFLNKSTGTNSPFYLKLFEKGKKSYIVNWLNENNF | -1.77 |
| HMEPEWVINTDGSNLNEILAIDEVDSRKTFSNDLQEVYRTFGIEAARQILVQEIDAVIESSGA | 0.082 |
| HMEIEYFDDEELDAYKGRKSDSYTDEEAAQFAEVLYTMRPSEVKDWTASLTLRGISMPDQIKDEAIMLME | -0.148 |
| HMDKPIVFLEDTKAHKSSDLQSPVYMTVPKGTIAFVIAEKGDWSQVYAGRVLDRNLASQWVRRGFS | 0.267 |
| HMENEIVMPVQINGKKRGDLTIARDADQASIQKAVLELDFVKAALNGGSPKKVIVVPQRIVNVV | 0.338 |
| HMGKASNEVYEVISSKIRTGEWAPGYKLPSEPTLAEEFGVSRATVREALQELISRGRIKREQGRGTYVLH | -0.0316 |
| HMKNLKLVSNTDGIRIDSWLADEFEDYSRSYLRKLIDQDLVYVNGNKIKANYKLKKGDEISISIPEPE | -0.151 |
| HMGTDIGADKAAQTALADAGLSSSQVTGLRTKQDWDDGQLRYEVEFRAGGVEYDYELAADGTILKADRDT | 0.17 |
| HMQIYLTPEQFKIIDFMEQMGKITVKDVMDILNIPKRTAQLHLQKLKTLKMIAQTGKGPSSAYLL | -1.11 |
| HMLAGKTYEVQTESGGKWTLVASYNVKSQAIQQAQALLESHKYSGVKVIAESDRKGEEVIFNEQSEVT | -0.0725 |
| HMEVNMEEKMEFVHSYIKTHKTFLFRQLLSESKSRTQVIVTFLVILELIKGGKISVTQENRTDDILINSL | 0.0528 |
| HMQVDENNINKRIDKYLSENTEYSRSTIQKMIDNGNITVNSKPTKSSYKLELNDIITIDNNFKE | 0.0359 |
| HMENKLIELTLSLDKSERLDKILTQELSHTRSVIQQWLKSGFVSVNGEIVKANYKAKDGDHVTIQIE | -0.594 |
| HMDGLIRLNKLLATLGVESRRHAEEMIIAGRITVDGVTATEKGQKVRRGAVIKVDGVEVGPPP | -0.581 |
| HMTGQHFDLEDTDGNLVYEIDSTVPLKTFYIYDAMHTEIFRMTKELLHALPTYRFYLYGEPYGVLKKQ | -0.192 |
| HMEKALEVKYQKMVELLGDQSTFYVDEVKKIFPEMKKSSLYWNMSKLVEGGYLRRIRNGVYAFNE | -0.401 |
| HMAMPQPVARALHRLGQDISAARRMRRLSQEDLAQRIGTSLSTVRRMEDGYPGTALHTFLRALHML | -0.552 |
| HMGTWKKIGTMTATVNDLYVRETPNGYIMGFINKGTVVEVDGKTTGKWTHAKVEGIGVGWIWTGYLDK | -3.17 |
| HMDIFSSFVAIKNANVRELPTAKSAQVATLSKGSEVTALGKVKGKNWYLVARDGKELGYVFGSLIAEAET | -1.56 |
| HMSKDQKKFFIEIVSIRGFGSQIGISILNKLSIPQIINAIKTQNKKEISSIPGIGQKMTERLILELNNKFK | -0.183 |
| HMDLVESYDLKIIYTSELINLLIDSSRLEEALNLFKDLKDEIDDVENLGFSAKNNLDYMESKLLHLG | -1.94 |
| HMKLIRIPFILTEGPDSQKITIDVDGDEEFRLGDVFEEDDKLWTVNQILVSGERKAKRSMAGEVMRISALR | -1.2 |
| HMNQSAVMAERMKQTKNRILQTAKEIFLEQGYKRTTIRQIVERSGITSGSIYNIFSSKEEIFSALVDDL | -3 |
| HMDGLGLGAVILAQRKRQGWTQEDLAARIGVSKGAVSKWETGQSYPDLPLVPRLAALFHITVDELLDYR | -2.35 |
| HMGFPAPFDGKAVAELRRRLGLTRRGLAEELSVSPSTVDKWEQGDVALRSPALTILKILWHQGLKALPP | -1.78 |
| HMEHPNNTELTQKLELGTELMQYGDYNYALKVFNNVIDSDPEWSEAWNKRATVYFLMSQFTDSLSDIDRV | 0.331 |
